# Test system: MCF10A
# ASSAY NOTES: percent viability (nuclei count relative to siNT); higher = more viable cells
# PROTOCOL CONDITIONS: 20 nM; 72 h
So I've got a bunch of sequences here, and I need their percent viability values.
Answers are plain numbers, in %.

{"columns": ["ORDERED RESIDUES", "percent viability, %"],
 "data": [
  ["CUGCCCUAGUCUAGCUGAAGCU [hsa-miR-3157-3p]", 170]
]}

# per-item lookup of percent viability; items listed below
1. AGCAGAGGCAGAGAGGCUCAGG [hsa-miR-2467-3p]
2. GAGAGGAACAUGGGCUCAGGACA [hsa-miR-6859-5p]
3. AGAAGUAAUUGCGGUUUUGCCA [hsa-miR-548ax]
4. GAGGCUGAAGGAAGAUGG [hsa-miR-4419b]
5. AUCGUGCAUCCCUUUAGAGUGU [hsa-miR-517b-3p]
6. AGCAGUGUUUGUUUUGCCCACA [hsa-miR-6499-3p]
7. GGGGGUCCCCGGUGCUCGGAUC [hsa-miR-615-5p]

output:
1. 4.65
2. 75.5
3. 53.4
4. 58.3
5. 35.2
6. 30.3
7. 137

# per-item lookup of percent viability; items listed below
1. CACAUAUGAAGUGAGCCAGCAC [hsa-miR-5580-3p]
2. UUCAUGAACUGGGUCUAGCUUGG [hsa-miR-7154-5p]
3. CUCCUCCCCUGCCUGGCCCAG [hsa-miR-6749-3p]
4. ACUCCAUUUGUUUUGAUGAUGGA [hsa-miR-136-5p]
5. CUUUGCUUCCUGCUCCCCUAG [hsa-miR-6885-3p]
6. ACUGGGAUGUCACUGAAUAUGGU [hsa-miR-6506-5p]

output:
1. 56.3
2. 60.8
3. 48.8
4. 107
5. 41.6
6. 28.3

# per-item lookup of percent viability; items listed below
1. GUGAGGCGGGGCCAGGAGGGUGUGU [hsa-miR-6765-5p]
2. AAGGCCCGGGCUUUCCUCCCAG [hsa-miR-4747-3p]
3. CGCCUCUUCAGCGCUGUCUUCC [hsa-miR-2682-3p]
4. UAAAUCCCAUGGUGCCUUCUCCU [hsa-miR-605]
5. UGGCAAGGAAAGAAGAGGAUCA [hsa-miR-6809-5p]

output:
72.9
29.2
75.9
31.2
9.15

# per-item lookup of percent viability; items listed below
1. AAUGUAGAGAUUGAUCAAAAU [hsa-miR-3668]
2. GAGAGCAGUGUGUGUUGCCUGG [hsa-miR-2278]
3. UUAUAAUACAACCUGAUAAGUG [hsa-miR-374a-5p]

output:
[86.3, 30.7, 100]

# per-item lookup of percent viability; items listed below
1. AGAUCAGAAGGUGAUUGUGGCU [hsa-miR-383-5p]
2. GCCUAUCACAUAUCUGCCUGU [hsa-miR-3927-5p]
3. UGGAAUGUAAAGAAGUAUGUAU [hsa-miR-1]

output:
[14.2, 73.9, 38.5]

# per-item lookup of percent viability; items listed below
1. GUGAGUCAGGGUGGGGCUGG [hsa-miR-937-5p]
2. UGAGGCAGUAGAUUGAAU [hsa-miR-1827]
3. CAGGCACGGGAGCUCAGGUGAG [hsa-miR-3622a-5p]
4. CAGCCGCCGCCUGUCUCCACAG [hsa-miR-6746-3p]
5. UAGGGGGCGGCUUGUGGAGUGU [hsa-miR-6805-5p]
6. UUAGGCCAUCAUCCCAUUAUGC [hsa-miR-5704]
7. CAAAUGGACAGGAUAACACCU [hsa-miR-4694-3p]
8. GAGAAAUGCUGGACUAAUCUGC [hsa-miR-5680]

output:
41.5
16.7
27.1
36.2
27
181
35.9
93.7

# per-item lookup of percent viability; items listed below
1. UGCCUGUCUACACUUGCUGUGC [hsa-miR-214-5p]
2. UGGGAACGGGUUCCGGCAGACGCUG [hsa-miR-1292-5p]
3. UUAAGACUUGCAGUGAUGUUU [hsa-miR-499a-5p]
4. GUCCCUGAGUGUAUGUGGUG [hsa-miR-670]
5. AUGCGAGGAUGCUGACAGUG [hsa-miR-4737]
6. AAAAGUACUUGCGGAUUU [hsa-miR-548av-5p]

output:
31.1
60.3
102
47.5
28.3
77.9

# per-item lookup of percent viability; items listed below
1. AGCACACUGAGCGAGCGGAC [hsa-miR-8064]
2. UGCUAGUCUGGACUGAUAUGGU [hsa-miR-8086]

output:
1. 44.2
2. 31.7

* * *

# Tested on: MCF10A
# ASSAY NOTES: 5+ nucleoli phenotype percent effect (relative to siNT 0% and siKIF11 100%); higher = more cells with five or more nucleoli
# PROTOCOL CONDITIONS: 20 nM; 72 h
READOUT NAME: 5+ nucleoli phenotype percent effect (%)
One number for each entry, in %.

{"columns": ["ORDERED RESIDUES", "5+ nucleoli phenotype percent effect [%]"],
 "data": [
  ["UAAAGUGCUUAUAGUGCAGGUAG [hsa-miR-20a-5p]", 6.94],
  ["CCCGGACAGGCGUUCGUGCGACGU [hsa-miR-3687]", 26.3]
]}

Moving on to another sequence below.
input: Which 5+ nucleoli phenotype percent effect value is on record for UCUCACUGUAGCCUCGAACCCC [hsa-miR-1304-3p] ?
output: 22.9

* * *

# Tested on: MCF10A
# ASSAY NOTES: one-nucleolus phenotype percent effect (relative to siNT 0% and siNOL11 100%); higher = more cells with one nucleolus (ribosome biogenesis inhibition)
# PROTOCOL CONDITIONS: 20 nM; 72 h
READOUT NAME: one-nucleolus phenotype percent effect (%)
One number for each entry, in %.

{"columns": ["ORDERED RESIDUES", "STUDY TARGET", "TEST VALUE"],
 "data": [
  ["CUCAAGUAGUCUGACCAGGGGA [hsa-miR-4465]", "MCF10A", -5.88],
  ["AAUUUACUCUGCAAUCUUCUCC [hsa-miR-4699-3p]", "MCF10A", -12.5],
  ["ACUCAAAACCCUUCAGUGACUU [hsa-miR-616-5p]", "MCF10A", -11.3],
  ["AUCGCUUUACCAUUCAUGUU [hsa-miR-4790-5p]", "MCF10A", 16.1],
  ["CCUGACACCCCAUCUGCCCUCA [hsa-miR-6730-3p]", "MCF10A", 26.8],
  ["AGGUCUGCAUUCAAAUCCCCAGA [hsa-miR-6503-5p]", "MCF10A", 3.05],
  ["CUGGGAGGUGUGAUAUUGUGGU [hsa-miR-3689c]", "MCF10A", 44],
  ["AUAACAUUGUAAAGCGCUUCUUUCG [hsa-miR-3143]", "MCF10A", -38.3]
]}

# per-item lookup of one-nucleolus phenotype percent effect; items listed below
1. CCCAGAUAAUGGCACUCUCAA [hsa-miR-488-5p]
2. AUUGUCCUUGCUGUUUGGAGAU [hsa-miR-2355-3p]

output:
[-5.8, -8.98]

* * *

# Test system: MCF10A
# ASSAY NOTES: 5+ nucleoli phenotype percent effect (relative to siNT 0% and siKIF11 100%); higher = more cells with five or more nucleoli
# PROTOCOL CONDITIONS: 20 nM; 72 h
So I've got a bunch of sequences here, and I need their 5+ nucleoli phenotype percent effect values.
Give bare numbers, in %.

// solved cases for 5+ nucleoli phenotype percent effect follow
{"columns": ["ORDERED RESIDUES", "5+ nucleoli phenotype percent effect [%]"],
 "data": [
  ["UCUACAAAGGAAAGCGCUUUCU [hsa-miR-1283]", 29.7],
  ["GGGGAGCUGUGGAAGCAGUA [hsa-miR-920]", 23.5],
  ["GGUGGGAUGGAGAGAAGGUAUGAG [hsa-miR-4769-5p]", 33.7],
  ["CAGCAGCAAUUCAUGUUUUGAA [hsa-miR-424-5p]", -8.58],
  ["GAUCCAUCUCUGCCUGUAUUGGC [hsa-miR-7151-5p]", -8.39]
]}

# per-item lookup of 5+ nucleoli phenotype percent effect; items listed below
1. UUUAAGCAGGAAAUAGAAUUUA [hsa-miR-4503]
2. AGUUUUGCAUAGUUGCACUACA [hsa-miR-19a-5p]
3. CCAGGGAGGCUGGUUUGGAGGA [hsa-miR-6754-5p]
4. GAAGACUUCUUGGAUUACAGGGG [hsa-miR-8087]
5. CCCUGUUCUAUGCCCUGAGGGA [hsa-miR-1266-3p]
6. CCGCCUGAGCUAGCUGUGG [hsa-miR-6078]
7. GUGUCUGGGCGGACAGCUGC [hsa-miR-1231]
8. UCUAGAAAUGCAUGACCCACC [hsa-miR-6508-5p]

output:
1: -5.17; 2: 35.3; 3: -21.9; 4: -8.56; 5: 47.8; 6: 38.1; 7: -15.6; 8: 17.2

# per-item lookup of 5+ nucleoli phenotype percent effect; items listed below
1. AUUUCCCUGCCAUUCCCUUGGC [hsa-miR-4446-5p]
2. CUCUAGAGGGAAGCACUUUCUG [hsa-miR-520c-5p]
3. UCGCCUCCUCCUCUCCC [hsa-miR-1281]
4. GGCAGGAGGGCUGUGCCAGGUUG [hsa-miR-4722-5p]
5. ACGGAAUAUGUAUACGGAAUAUA [hsa-miR-3669]
6. CUAGCACACAGAUACGCCCAGA [hsa-miR-585-5p]
7. CUGGGGGUGGGGGGCUGGGCGU [hsa-miR-6803-5p]

output:
[-36, 17.5, -24.6, 13.5, 30.9, -45.7, 16]

# per-item lookup of 5+ nucleoli phenotype percent effect; items listed below
1. CUCCCCGGCCUCUGCCCCCAG [hsa-miR-6763-3p]
2. AAUGCACCCGGGCAAGGAUUCU [hsa-miR-501-3p]
3. UUUCAGAUAACAGUAUUACAU [hsa-miR-3942-3p]
4. CUCGGGAGGGCAUGGGCCAGGC [hsa-miR-6771-5p]
5. CCCGGAGCCAGGAUGCAGCUC [hsa-miR-1203]
6. CUCACUGAACAAUGAAUGCAA [hsa-miR-181b-3p]
7. AUUCUGCAUUUUUAGCAAGUUC [hsa-miR-544a]

output:
1: 39.1; 2: -14.1; 3: -0.677; 4: -1.93; 5: 4.95; 6: 22; 7: -31.2

# per-item lookup of 5+ nucleoli phenotype percent effect; items listed below
1. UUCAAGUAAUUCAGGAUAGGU [hsa-miR-26b-5p]
2. AGGAGAAGUCGGGAAGGU [hsa-miR-5703]
3. UGGGAGGAGGGGAUCUUGGG [hsa-miR-7106-5p]

output:
1: 45.6; 2: 33.6; 3: 21.2

FYI, the data here is from the supplement of paper PMC10899765.
